Data origin: ChEMBL document CHEMBL5360622

target: Dual specificity tyrosine-phosphorylation-regulated kinase 4 (Homo sapiens, UniProt Q9NR20)
Sequence (Q9NR20 whole entry): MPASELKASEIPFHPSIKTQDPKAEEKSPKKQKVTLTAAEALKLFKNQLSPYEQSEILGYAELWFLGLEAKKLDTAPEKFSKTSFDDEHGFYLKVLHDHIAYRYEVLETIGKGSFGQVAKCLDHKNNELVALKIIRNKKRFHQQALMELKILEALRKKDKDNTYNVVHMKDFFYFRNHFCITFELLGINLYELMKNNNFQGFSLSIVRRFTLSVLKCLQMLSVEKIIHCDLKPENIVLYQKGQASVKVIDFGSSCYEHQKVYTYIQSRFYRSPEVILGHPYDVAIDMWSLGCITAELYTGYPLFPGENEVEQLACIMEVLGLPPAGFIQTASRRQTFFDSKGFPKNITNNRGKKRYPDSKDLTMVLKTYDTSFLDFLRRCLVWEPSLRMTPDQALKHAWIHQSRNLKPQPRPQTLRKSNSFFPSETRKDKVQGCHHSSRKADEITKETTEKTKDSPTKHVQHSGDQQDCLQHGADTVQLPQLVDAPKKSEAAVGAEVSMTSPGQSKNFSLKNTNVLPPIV
pIC50: −log10 of the molar value.
Attribute Measured: pIC50

Worked cases, answers included:
input: Could you share which pIC50 value was measured for CC[C@H](CO)NC1=N/C(=C\c2ccc3ncsc3c2)C(=O)N1 ?
output: 5.80

input: Could you share which pIC50 value was measured for Cc1csc(CNC2=N/C(=C\c3ccc4ncsc4c3)C(=O)N2)n1 ?
output: 6.02

input: Could you share which pIC50 value was measured for O=C1NC(NC2CCCCCC2)=N/C1=C\c1ccc2c(c1)OCO2 ?
output: 5.91

1. O=C1NC(NC2CCOCC2)=N/C1=C\c1ccc2ncsc2c1
2. O=C1NC(N[C@H]2C3CC4CC2C[C@](O)(C4)C3)=N/C1=C\c1ccc2ncsc2c1
input: Looking at recorded values for pIC50, does 1 or 2 come in lower? Lab note: record the label of whichever item you select.
output: 1

====

biological target: Glycogen synthase kinase-3 beta (Homo sapiens)
Sequence (P49841 whole entry): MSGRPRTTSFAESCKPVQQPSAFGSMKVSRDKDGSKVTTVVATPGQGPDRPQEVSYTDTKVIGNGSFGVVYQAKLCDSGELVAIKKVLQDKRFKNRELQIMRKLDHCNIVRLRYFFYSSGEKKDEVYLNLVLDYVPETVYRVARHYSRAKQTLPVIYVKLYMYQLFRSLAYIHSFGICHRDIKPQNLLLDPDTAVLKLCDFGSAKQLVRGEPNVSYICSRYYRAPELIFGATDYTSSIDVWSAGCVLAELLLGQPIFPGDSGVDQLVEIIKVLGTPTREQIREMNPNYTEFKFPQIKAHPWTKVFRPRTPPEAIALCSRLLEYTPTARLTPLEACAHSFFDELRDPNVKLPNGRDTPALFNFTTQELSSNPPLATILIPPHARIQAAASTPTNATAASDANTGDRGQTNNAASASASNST
Attribute Measured: IC50

input: Could you share which IC50 value was measured for O=C1NC(Nc2cccc(C(F)(F)F)c2)=N/C1=C\c1ccc2ncsc2c1 ?
output: > 10 µM

input: Could you share which IC50 value was measured for CN1CCC2(CC1)CC(NC1=N/C(=C\c3ccc4ncsc4c3)C(=O)N1)C2 ?
output: > 10 µM

---
input: Could you share which IC50 value was measured for Cn1cnc2cc(/C=C3\N=C(NC45CC6CC(CC(C6)C4)C5)NC3=O)ccc21 ?
output: > 10 µM

====

biological target: Dual specificity tyrosine-phosphorylation-regulated kinase 4 (Homo sapiens, UniProt Q9NR20)
pIC50: −log10 of the molar value.
Attribute Measured: pIC50

input: Could you share which pIC50 value was measured for CN1CC[C@@](C)(NC2=N/C(=C\c3ccc4ncsc4c3)C(=O)N2)C1=O (stereo in doubt) ?
output: 5.77

P. O=C1NC(NC2CCCNC2=O)=N/C1=C\c1ccc2ncsc2c1 (racemic)
Q. O=C1NC(NC2CC23CCCCC3)=N/C1=C\c1ccc2ncsc2c1 (stereo not drawn)
R. CC(C)(C)NC(=O)OC12CC3CC(CC(NC4=N/C(=C\c5ccc6ncsc6c5)C(=O)N4)(C3)C1)C2
S. O=C1NC(NC23CC4CC(CC(C4)C2)C3)=N/C1=C\c1ccc2c(c1)OCO2
T. O=C1NC(N[C@@H]2CCOC2)=N/C1=C\c1ccc2ncsc2c1
input: Order the records by pIC50, with each subsequent value no larger than the one before. Please list the labels in the order you were asked to rank them.
output: R, Q, S, T, P
(R: 6.90, Q: 6.03, S: 5.79, T: 5.56, P: 5.14)

====

biological target: Glycogen synthase kinase-3 beta (Homo sapiens)
Attribute Measured: IC50

input: Report IC50 for Cn1cnc2ccc(/C=C3\N=C(NC4CCCCC4)NC3=O)cc21 tested on Glycogen synthase kinase-3 beta (Homo sapiens).
output: > 10 µM

input: Report IC50 for O=C1NC(NC2CCOCC2)=N/C1=C\c1ccc2ncsc2c1 tested on Glycogen synthase kinase-3 beta (Homo sapiens).
output: > 10 µM

input: Report IC50 for O=C1NC(Nc2ccc(N3CCOCC3)cc2)=N/C1=C\c1ccc2ncsc2c1 tested on Glycogen synthase kinase-3 beta (Homo sapiens).
output: > 10 µM

input: Report IC50 for O=C1NC(NC23CC4CC(CC(C4)C2)C3)=N/C1=C\c1ccc2[nH]ccc2c1 tested on Glycogen synthase kinase-3 beta (Homo sapiens).
output: > 10 µM

---
input: Report IC50 for Cc1nc2ccc(/C=C3\N=C(NC4CCCCCC4)NC3=O)cc2s1 tested on Glycogen synthase kinase-3 beta (Homo sapiens).
output: > 10 µM

input: Report IC50 for CC[C@@H](CO)NC1=N/C(=C\c2ccc3ncsc3c2)C(=O)N1 tested on Glycogen synthase kinase-3 beta (Homo sapiens).
output: > 10 µM
